Experiment: false signal in post-reaction Plk1 detection – biochemical, TR-FRET, compound added post-reaction, artefact control for Plk1 kinase inhibitor project (AID 756)
Conditions: Plk1 TR-FRET assay interference, at 10 µM, active compounds read high
Some of the results follow.
Binary classification by inhibition (interference), with -50% as an inclusive lower bound for YES; all other cases are NO.

{"molecule": "C[N+]1(CCNC(=O)/C=N/O)CCCCC1", "class label": "YES"}

Would you say COc1ccc(-c2nc(CS(=O)CC(=O)NCc3cccnc3)c(C)o2)cc1OC (stereo unspecified) shows inhibition (interference) at minimum -50%?
NO

Try CC1CSc2nnc(CCc3ccccc3)n21 (stereo unspecified) next.
NO

Try "O=C(Nc1cccc(F)c1)c1ccc(S(=O)(=O)N2CCCC2)cc1" next.
YES
